- System: K12877-001-R-J1-PDC complex spheroid viability
- Assay overview: Anticancer human tumor K12877-001-R-J1-PDC patient-derived lung adenocarcinoma cell line growth inhibition [RAS]; active means viability on the fitted dose curve at most 10% of control; inactive means the rest
- Experimental parameters: second compound 0.0316 µM; first compound 1 µM
I would appreciate it if you answered using one of these outcomes: active, inactive

Consider the following illustrative entries.
{"Compound": "Nc1ccn(C2OC(CO)C(O)C2(F)F)c(=O)n1 (stereo not drawn) + C=CC(=O)N1CCN(c2nc(OCC3CCCN3C)nc3c(F)c(-c4nc(N)cc(C)c4C(F)(F)F)c(Cl)cc23)C(C)C1", "System tested": "K12877-001-R-J1-PDC complex spheroid viability", "Class label": "active"}
{"Compound": "C=CC(=O)Nc1cc(Nc2nccc(-c3cn(C)c4ccccc34)n2)c(OC)cc1N(C)CCN(C)C + C=CC(=O)N1CCN(c2nc(OCC3CCCN3C)nc3c(F)c(-c4nc(N)cc(C)c4C(F)(F)F)c(Cl)cc23)C(C)C1", "System tested": "K12877-001-R-J1-PDC complex spheroid viability", "Class label": "inactive"}

Query :: For CC(=O)OC12COC1CC(O)C1(C)C(=O)C(O)C3=C(C)C(OC(=O)C(O)C(NC(=O)OC(C)(C)C)c4ccccc4)CC(O)(C(OC(=O)c4ccccc4)C21)C3(C)C (stereo not drawn) + C#Cc1c(F)ccc2cc(O)cc(-c3ncc4c(N5CC6CCC(C5)N6)nc(OCC56CCCN5CC(F)C6)nc4c3F)c12 , which call appears in the assay record?
Result :: active

Query :: For this compound, state the assay outcome: CC(C)NCC(C(=O)N1CCN(c2ncnc3c2C(C)CC3O)CC1)c1ccc(Cl)cc1 (stereo not drawn) + C#Cc1c(F)ccc2cc(O)cc(-c3ncc4c(N5CC6CCC(C5)N6)nc(OCC56CCCN5CC(F)C6)nc4c3F)c12
Result :: inactive

Query :: Query: recorded result category for CC(Nc1ccc2c(c1)OCCn1cc(N3C(=O)OCC3C(F)F)nc1-2)C(N)=O (stereo not drawn) + C=CC(=O)N1CCN(c2nc(OCC3CCCN3C)nc3c(F)c(-c4nc(N)cc(C)c4C(F)(F)F)c(Cl)cc23)C(C)C1 in this test
Result :: inactive

Query :: So what was the verdict on CC1(O)CCCC1n1c(=O)c(C(F)F)cc2cnc(NC3CCN(S(C)(=O)=O)CC3)nc21 (stereo not drawn) + C=CC(=O)N1CCN(c2nc(OCC3CCCN3C)nc3c(F)c(-c4nc(N)cc(C)c4C(F)(F)F)c(Cl)cc23)C(C)C1 in this test?
Result :: inactive

Query :: Hi team, can someone confirm the assay call for CCC(CC)c1cc(NC2CCC(N)C2)n2nccc2n1 (stereo not drawn) + C=CC(=O)N1CCN(c2nc(OCC3CCCN3C)nc3c(F)c(-c4nc(N)cc(C)c4C(F)(F)F)c(Cl)cc23)C(C)C1 ?
Result :: inactive

Query :: So what was the verdict on CC1(O)CCCC1n1c(=O)c(C(F)F)cc2cnc(NC3CCN(S(C)(=O)=O)CC3)nc21 (stereo not drawn) + C#Cc1c(F)ccc2cc(O)cc(-c3ncc4c(N5CC6CCC(C5)N6)nc(OCC56CCCN5CC(F)C6)nc4c3F)c12 in this test?
Result :: inactive

====

- Test system: K12877-001-R-J1-PDC complex spheroid viability
- Assay overview: Anticancer human tumor K12877-001-R-J1-PDC cell line growth inhibition [RAS];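 further: tumour cells co-cultured with HUVEC and mesenchymal stem cells in spheroids; spheroids exposed to agents for one week before readout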
- Experimental parameters: second compound 0.000949 µM; first compound 0.01 µM; active compounds read low
Listing of entries alongside the reported viability, T/C.
Numbers only here, please. The scale is %.

Examples from the recorded data:
{"Compound": "CCN1CCN(Cc2ccc(Nc3ncc(F)c(-c4cc(F)c5nc(C)n(C(C)C)c5c4)n3)nc2)CC1 + CCn1c(-c2cccnc2C(C)OC)c2c3cc(ccc31)N1CCOC(CC(NC(=O)C(C(C)C)N(C)C(=O)C3(F)CCN(C(=O)C#CC(C)(C)N(C)C)CC3)C(=O)N3CCCC(N3)C(=O)OCC(C)(C)C2)C1", "System tested": "K12877-001-R-J1-PDC complex spheroid viability", "Unit of measure": "%", "viability, T/C": 80.4}
{"Compound": "CC(C)n1nc(-c2ccc3oc(N)nc3c2)c2c(N)ncnc21 + CCn1c(-c2cccnc2C(C)OC)c2c3cc(ccc31)N1CCOC(CC(NC(=O)C(C(C)C)N(C)C(=O)C3(F)CCN(C(=O)C#CC(C)(C)N(C)C)CC3)C(=O)N3CCCC(N3)C(=O)OCC(C)(C)C2)C1", "System tested": "K12877-001-R-J1-PDC complex spheroid viability", "Unit of measure": "%", "viability, T/C": 47.4}

Query :: Field: viability, T/C (K12877-001-R-J1-PDC complex spheroid viability). Entry: C=CC(=O)N1CCN(c2nc(OCC3CCCN3C)nc3c(F)c(-c4nc(N)cc(C)c4C(F)(F)F)c(Cl)cc23)C(C)C1 (stereo not drawn) + CCn1c(-c2cccnc2C(C)OC)c2c3cc(ccc31)N1CCOC(CC(NC(=O)C(C(C)C)N(C)C(=O)C3(F)CCN(C(=O)C#CC(C)(C)N(C)C)CC3)C(=O)N3CCCC(N3)C(=O)OCC(C)(C)C2)C1
Result :: 83

====

- Tested on: K12877-001-R-J1-PDC complex spheroid viability
- Assay overview: Anticancer human tumor K12877-001-R-J1-PDC cell line growth inhibition [RAS]; active = viability on the fitted dose curve at most 10% of control; inactive = the rest;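 further: tumour cells co-cultured with HUVEC and mesenchymal stem cells in spheroids; spheroids exposed to agents for one week before readout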
- Experimental parameters: second compound 10 µM; first compound 10 µM
A correct response names exactly one class from yes for active, no for inactive

{"Compound": "CCC(CC)c1cc(NC2CCC(N)C2)n2nccc2n1 (stereo not drawn) + C#Cc1c(F)ccc2cc(O)cc(-c3ncc4c(N5CC6CCC(C5)N6)nc(OCC56CCCN5CC(F)C6)nc4c3F)c12", "System tested": "K12877-001-R-J1-PDC complex spheroid viability", "Class label": "yes"}
{"Compound": "C[C@@H](NC(=O)c1ncnc(N)c1Cl)c1ncc(C(=O)Nc2cc(C(F)(F)F)c(Cl)cn2)s1 + C#Cc1c(F)ccc2cc(O)cc(-c3ncc4c(N5CC6CCC(C5)N6)nc(OCC56CCCN5CC(F)C6)nc4c3F)c12", "System tested": "K12877-001-R-J1-PDC complex spheroid viability", "Class label": "no"}

Here's the next entry for you.
Query :: Which outcome was assigned to CC(C)NCC(C(=O)N1CCN(c2ncnc3c2C(C)CC3O)CC1)c1ccc(Cl)cc1 (stereo not drawn) + C#Cc1c(F)ccc2cc(O)cc(-c3ncc4c(N5CC6CCC(C5)N6)nc(OCC56CCCN5CC(F)C6)nc4c3F)c12 in this test?
Result :: no

====

- Tested on: K12877-001-R-J1-PDC complex spheroid viability
- Assay overview: Anticancer human tumor K12877-001-R-J1-PDC cell line growth inhibition [RAS];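 further: tumour cells co-cultured with HUVEC and mesenchymal stem cells in spheroids; spheroids exposed to agents for one week before readout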
- Experimental parameters: second compound 1 µM; first compound 3.16 µM; active compounds read low
Listing of entries alongside the reported viability, T/C.
Hi! Could you send only the number? It should be in %, unit omitted.

The cases that follow already have their viability, T/C on record.
{"Compound": "CCC(CC)c1cc(NC2CCC(N)C2)n2nccc2n1 (configuration not stated) + C=CC(=O)N1CCN(c2nc(OCC3CCCN3C)nc3c(F)c(-c4nc(N)cc(C)c4C(F)(F)F)c(Cl)cc23)C(C)C1", "System tested": "K12877-001-R-J1-PDC complex spheroid viability", "viability, T/C / %": 1.96}
{"Compound": "CC(C)NCC(C(=O)N1CCN(c2ncnc3c2C(C)CC3O)CC1)c1ccc(Cl)cc1 (configuration not stated) + C#Cc1c(F)ccc2cc(O)cc(-c3ncc4c(N5CC6CCC(C5)N6)nc(OCC56CCCN5CC(F)C6)nc4c3F)c12", "System tested": "K12877-001-R-J1-PDC complex spheroid viability", "viability, T/C / %": 55.4}
{"Compound": "NC1c2ccccc2OC12CCN(c1cnc3c(N4CCCc5ncccc54)n[nH]c3n1)CC2 (configuration not stated) + C#Cc1c(F)ccc2cc(O)cc(-c3ncc4c(N5CC6CCC(C5)N6)nc(OCC56CCCN5CC(F)C6)nc4c3F)c12", "System tested": "K12877-001-R-J1-PDC complex spheroid viability", "viability, T/C / %": 71.2}
{"Compound": "CC1(O)CCCC1n1c(=O)c(C(F)F)cc2cnc(NC3CCN(S(C)(=O)=O)CC3)nc21 (configuration not stated) + C=CC(=O)N1CCN(c2nc(OCC3CCCN3C)nc3c(F)c(-c4nc(N)cc(C)c4C(F)(F)F)c(Cl)cc23)C(C)C1", "System tested": "K12877-001-R-J1-PDC complex spheroid viability", "viability, T/C / %": 42.2}

Query :: Given the entry CC(Nc1ccc2c(c1)OCCn1cc(N3C(=O)OCC3C(F)F)nc1-2)C(N)=O (configuration not stated) + C=CC(=O)N1CCN(c2nc(OCC3CCCN3C)nc3c(F)c(-c4nc(N)cc(C)c4C(F)(F)F)c(Cl)cc23)C(C)C1 , report its measured viability, T/C.
Result :: 43.5

Query :: Please give the measured viability, T/C for this compound: CC(=O)OC12COC1CC(O)C1(C)C(=O)C(O)C3=C(C)C(OC(=O)C(O)C(NC(=O)OC(C)(C)C)c4ccccc4)CC(O)(C(OC(=O)c4ccccc4)C21)C3(C)C (configuration not stated) + C#Cc1c(F)ccc2cc(O)cc(-c3ncc4c(N5CC6CCC(C5)N6)nc(OCC56CCCN5CC(F)C6)nc4c3F)c12
Result :: 7.06

Query :: Field request: viability, T/C | item: C[C@@H](NC(=O)c1ncnc(N)c1Cl)c1ncc(C(=O)Nc2cc(C(F)(F)F)c(Cl)cn2)s1 + C#Cc1c(F)ccc2cc(O)cc(-c3ncc4c(N5CC6CCC(C5)N6)nc(OCC56CCCN5CC(F)C6)nc4c3F)c12
Result :: 106
